- target_entity: human recombinant HDAC6 (Homo sapiens, UniProt Q9UBN7)
- Construct: purchased Calbiochem 382180
- Sequence (Q9UBN7 whole entry): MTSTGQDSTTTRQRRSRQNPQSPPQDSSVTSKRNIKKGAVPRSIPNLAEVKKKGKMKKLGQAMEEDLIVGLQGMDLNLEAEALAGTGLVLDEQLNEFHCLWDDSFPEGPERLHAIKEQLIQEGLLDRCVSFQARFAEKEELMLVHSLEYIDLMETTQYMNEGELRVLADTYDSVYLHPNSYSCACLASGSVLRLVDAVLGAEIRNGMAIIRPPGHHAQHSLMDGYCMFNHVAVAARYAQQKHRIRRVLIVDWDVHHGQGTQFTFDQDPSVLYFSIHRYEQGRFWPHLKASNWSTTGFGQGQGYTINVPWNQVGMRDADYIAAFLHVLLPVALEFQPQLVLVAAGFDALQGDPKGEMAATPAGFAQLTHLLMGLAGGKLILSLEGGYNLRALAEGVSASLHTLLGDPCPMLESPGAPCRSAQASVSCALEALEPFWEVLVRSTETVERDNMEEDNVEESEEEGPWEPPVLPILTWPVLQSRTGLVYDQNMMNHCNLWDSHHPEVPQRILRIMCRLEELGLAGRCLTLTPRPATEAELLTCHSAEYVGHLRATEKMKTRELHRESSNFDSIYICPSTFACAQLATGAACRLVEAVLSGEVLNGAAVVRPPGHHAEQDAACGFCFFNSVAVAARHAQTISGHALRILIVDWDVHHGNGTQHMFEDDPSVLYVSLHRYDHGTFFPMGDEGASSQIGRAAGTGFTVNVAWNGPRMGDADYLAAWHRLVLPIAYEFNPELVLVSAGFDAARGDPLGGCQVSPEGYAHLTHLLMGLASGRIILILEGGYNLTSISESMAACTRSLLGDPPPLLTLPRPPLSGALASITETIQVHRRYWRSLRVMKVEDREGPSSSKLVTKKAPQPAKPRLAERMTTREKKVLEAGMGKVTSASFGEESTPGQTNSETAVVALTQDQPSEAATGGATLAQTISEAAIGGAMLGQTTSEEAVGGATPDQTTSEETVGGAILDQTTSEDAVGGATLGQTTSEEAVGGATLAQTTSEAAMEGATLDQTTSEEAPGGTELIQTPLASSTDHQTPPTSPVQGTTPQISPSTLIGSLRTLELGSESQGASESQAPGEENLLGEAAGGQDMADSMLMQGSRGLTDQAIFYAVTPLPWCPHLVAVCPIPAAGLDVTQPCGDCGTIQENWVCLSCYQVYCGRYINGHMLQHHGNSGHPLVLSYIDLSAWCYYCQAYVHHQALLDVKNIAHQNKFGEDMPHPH
- assay_overview: HDAC6 enzyme activity inhibition assay (HDAC Fluorimetric Drug Discovery Kit)
- Type: biochemical
- condition_context: HDAC1 vs HDAC6
- Procedure: In order to examine the HDAC6 selectivity of the compounds of formula I of the present invention by HDAC1 and HDAC6 enzymatic activity inhibition assays, an experiment was performed using a conventional substance as a control. HDAC enzyme activity was measured using a HDAC Fluorimetric Drug Discovery Kit (BML-AK511, 516, Enzo Life Science). […] Based on the resulting values, each IC50 value was calculated using GraphPad Prism4.0 program.
quantity_measured: HDAC6 selectivity (fold)

[
  {
    "smiles_string": "C[C@@H]1CN(CCCS(=O)(=O)N(Cc2ccc(-c3nnc(C(F)F)o3)cc2)c2ccccc2)C[C@H](C)N1C",
    "HDAC6 selectivity (fold)": 5263
  },
  {
    "smiles_string": "CS(=O)(=O)N(Cc1ccc(-c2nnc(C(F)(F)F)o2)cc1F)c1cccc(F)c1",
    "HDAC6 selectivity (fold)": 3030
  }
]

(A) CCN1CCC(S(=O)(=O)N(Cc2ccc(-c3nnc(C(F)F)o3)cn2)c2ccccc2)CC1
(B) O=S(=O)(C1CCN(C2COC2)CC1)N(Cc1ccc(-c2nnc(C(F)F)o2)cn1)c1cccc(Cl)c1
Could you tell me which of A and B has the lower HDAC6 selectivity (fold) reading? Write down the label of the entry you select. A
(A: 6667 fold, B: 14285 fold)

Just for reference, patent US10538498B2 is where these values come from.
